Recorded values, source paper PMC3094755.

Target under test: PARP-1 F1+F2 (24-kDa DBD) (Homo sapiens, UniProt P09874 1-214)
Sequence (P09874 1-214): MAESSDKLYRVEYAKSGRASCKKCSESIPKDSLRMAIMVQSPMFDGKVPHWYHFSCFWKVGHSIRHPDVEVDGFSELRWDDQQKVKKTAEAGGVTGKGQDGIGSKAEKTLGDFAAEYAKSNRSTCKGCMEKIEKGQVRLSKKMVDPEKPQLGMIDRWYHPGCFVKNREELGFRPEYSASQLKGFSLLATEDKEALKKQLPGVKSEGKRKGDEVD
Assay protocol: fluorescence anisotropy; 100; 50 mM Tris-HCl pH 7.0, 150 uM ZnSO4, 4 mM DTT, 25 C; NaCl 0-200 mM (T2, as in cof; 10 nM DNA) or 25 mM (T3 mutants; 25 nM DNA)
Test parameters: protein: recombinant; label: fluorescein-dT at T8 and T30; circular closed dumbbell, two tetraloops, no nick
Property name: Kd (nM)
Use nM as the unit, but write only the number.

## Input Recorded Kd for CGGTCGATCGTAAGATCGACCGCGGTCGATCGTAAGATCGACCG (structured_DNA, circular, nick sealed by T4 DNA ligase) [ligated (circular) symmetric 44-nt dumbbell, 2x fluorescein-dT] , please?
## Output 1110
